Let's go through some recorded pKi values for PI3Kδ (Homo sapiens (Human), UniProt O00329) together.
Give only the number. pKi is defined as minus log10 of concentration in molar units.

Find pKi (PI3Kδ (Homo sapiens (Human), UniProt O00329)) for the entry `Cc1cccc2nc([C@@H](C)Nc3ncnc(N)c3C#N)c(-c3ccccn3)c(=O)n12`
4.97

Find pKi (PI3Kδ (Homo sapiens (Human), UniProt O00329)) for the entry `Cc1cccc2nc(CNc3ncnc4[nH]cnc34)c(-c3cccc(F)c3)c(=O)n12`
6.15

----------
Let's go through some recorded Ki values for PI3Kδ (Homo sapiens (Human), UniProt O00329) together.
Unit nM implied. Number only.

Recorded results for 2 compounds are shown here.
{"columns": ["COMPOUND", "Ki / nM"],
 "data": [
  ["CC(Nc1ncnc(N)c1C#N)c1nc2ccccn2c(=O)c1-c1cccc(F)c1 (racemic)", 57.1],
  ["C[C@H](Nc1ncnc(N)c1C#N)c1nc2ccccn2c(=O)c1-c1ccccc1S(C)(=O)=O", 53.7]
]}

Find Ki (PI3Kδ (Homo sapiens (Human), UniProt O00329)) for the entry `Cc1cccc2nc([C@@H](C)Nc3ncnc4[nH]cnc34)c(-c3cccc(F)c3)c(=O)n12`
802
